Reference source: patent US20110136724A1

Please respond with reported Ki for every item in the list.
systemName: T1, human recombinant GIP receptor (human, UniProt P48546 22-466)
T1 construct: whole, on cells; Assayed as washed membranes of CHO-K1 cells expressing the receptor; also called hGIP receptor
T1 sequence (looked up): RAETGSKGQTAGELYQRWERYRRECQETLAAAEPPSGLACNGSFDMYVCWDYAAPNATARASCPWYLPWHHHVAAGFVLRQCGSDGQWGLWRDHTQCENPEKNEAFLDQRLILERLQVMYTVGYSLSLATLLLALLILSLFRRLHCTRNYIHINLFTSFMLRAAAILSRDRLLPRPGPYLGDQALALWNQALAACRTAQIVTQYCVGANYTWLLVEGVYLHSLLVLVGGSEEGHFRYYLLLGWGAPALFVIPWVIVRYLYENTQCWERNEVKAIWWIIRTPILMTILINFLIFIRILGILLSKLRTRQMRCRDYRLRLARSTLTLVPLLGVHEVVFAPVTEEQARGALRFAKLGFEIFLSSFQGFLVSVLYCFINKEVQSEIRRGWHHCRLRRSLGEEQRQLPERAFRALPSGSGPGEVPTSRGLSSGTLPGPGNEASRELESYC
experimentNotes: radioligand competition, [125I]GIP on membranes of CHO-K1 cells expressing human GIP receptor

Here is how some binders turned out for Ki.
XEGTFISDYSIXMDKIHQQDFVNWLLAQKGKKNDWKHNITQ (4Hppa at 2; Aib at 13; hGIP numbering; C-terminal free acid, Synthetic analogue of human GIP) [(4Hppa^2, Aib^13)hGIP(2-42)-OH)] | 12.9 nM
XGTFXSDYSIAMDKIHQQDFVNWLLAQKGKKNDWKHNITQ (N-terminal acetyl (Ac); 4Hyp (4-hydroxyproline) at 3; A6c at 7; hGIP numbering; C-terminal free acid, Synthetic analogue of human GIP) [(Ac-4Hyp^3, A6c^7)hGIP(3-42)-OH] | 546 nM

Challenge: Fill in Ki for record XSDYSIAMDKIHQQDFVNWLLAQKC (N-terminal acetyl (Ac); A6c at 7; Cys(Psu) at 31; hGIP numbering; C-terminal amide, Synthetic analogue of human GIP) [[Ac-A6c^7, Cys(Psu)^31]hGIP(7-31)-NH2]
Response given: 48.3 nM
